- Tested Target: D-Apt49
- Procedure Details: Homogeneous electrochemical competitive binding assay in 20% fetal bovine serum
- Conditions: 20% fetal bovine serum, 5 µM Fc-L-Tym, 40 µM D-Apt49; read-out: K^*d
Reported Endpoint: pKd
Value format note: pKd is -log10 of concentration (mol/L); just state the number.

The compound NC(=O)[C@@H](N)Cc1ccc(O[c-]2cccc2)cc1.[Fe+2].c1cc[cH-]c1 [Fc-L-Tym, O-Ferrocenyltyrosynamide] , when measured on D-Apt49, yielded pKd of 4.12

###

- Tested Target: D-Apt49
- Procedure Details: Homogeneous electrochemical competitive binding assay in 20% fetal bovine serum
- Conditions: 5-fold diluted fetal bovine serum; average of the fitted curves; read-out: K^*d (average value)
Reported Endpoint: pKd
Value format note: pKd is -log10 of concentration (mol/L); just state the number.

Noted for NC(=O)[C@@H](N)Cc1ccc(O[c-]2cccc2)cc1.[Fe+2].c1cc[cH-]c1 [Fc-L-Tym, O-Ferrocenyltyrosynamide] : its pKd reads 4.12
